Measured FACS signal at 4.9383 nM by item
Target: T1, human LAG3 expressed on cells (human, UniProt P18627 23-525)
T1 construct: whole, on cells
T1 sequence (looked up): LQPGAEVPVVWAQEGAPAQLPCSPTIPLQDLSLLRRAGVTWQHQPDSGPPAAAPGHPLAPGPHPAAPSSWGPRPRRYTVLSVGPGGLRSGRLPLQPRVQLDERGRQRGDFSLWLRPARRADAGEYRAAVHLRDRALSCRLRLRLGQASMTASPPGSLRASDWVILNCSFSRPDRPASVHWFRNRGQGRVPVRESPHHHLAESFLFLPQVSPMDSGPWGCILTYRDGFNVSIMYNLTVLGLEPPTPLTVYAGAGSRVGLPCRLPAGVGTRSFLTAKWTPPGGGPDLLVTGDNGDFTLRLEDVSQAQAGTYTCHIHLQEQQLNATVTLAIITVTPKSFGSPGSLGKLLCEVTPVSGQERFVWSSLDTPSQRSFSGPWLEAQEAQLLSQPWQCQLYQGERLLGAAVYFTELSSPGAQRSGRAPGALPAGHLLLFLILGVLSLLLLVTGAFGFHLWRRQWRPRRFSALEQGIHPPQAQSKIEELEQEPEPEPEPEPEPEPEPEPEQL
Assay: FACS, 293T-hLAG3 cells
The answer should be written as a number, with no unit following it.

Here's what some known entries look like.
* sdAb No. 27 (VHH, Fc of the tested form not described; also called sdAb 27; not shown: Fc part implied by anti-human Fc capture and anti-human IgG Fc detection) VHH: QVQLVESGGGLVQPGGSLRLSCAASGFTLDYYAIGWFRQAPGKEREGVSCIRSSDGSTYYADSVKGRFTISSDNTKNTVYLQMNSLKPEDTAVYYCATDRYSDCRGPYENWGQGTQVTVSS | 3570
* sdAb No. 25 (VHH, Fc of the tested form not described; also called sdAb 25; sdAb #25; not shown: Fc part implied by anti-human Fc capture and anti-human IgG Fc detection) VHH: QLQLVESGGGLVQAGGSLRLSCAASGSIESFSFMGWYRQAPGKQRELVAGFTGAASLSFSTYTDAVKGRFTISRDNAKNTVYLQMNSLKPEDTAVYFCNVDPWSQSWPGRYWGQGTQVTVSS | 2000

Consider the additional binder presented here.
Exercise: For the binder shown here, sdAb No. 27-H1B3 (VHH, Humanized sdAb No. 27-H1; not shown: Fc part implied by anti-human IgG Fc detection) VHH: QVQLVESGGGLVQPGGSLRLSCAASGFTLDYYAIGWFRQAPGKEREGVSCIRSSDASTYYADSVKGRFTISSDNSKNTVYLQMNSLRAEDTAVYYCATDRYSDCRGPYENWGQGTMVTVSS , give the reported FACS signal at 4.9383 nM.
Key: 3820
